molecular target: CDK4/Cyclin D1 (Homo sapiens); assay: NanoBRET live-cell target engagement, NanoLuc-CDK4/Cyclin D1 in HEK-293; format: binding; settings: CDK4/D1; experiment 2; read-out: Inhibition at 10µM (%)
Sequence (P11802 whole entry): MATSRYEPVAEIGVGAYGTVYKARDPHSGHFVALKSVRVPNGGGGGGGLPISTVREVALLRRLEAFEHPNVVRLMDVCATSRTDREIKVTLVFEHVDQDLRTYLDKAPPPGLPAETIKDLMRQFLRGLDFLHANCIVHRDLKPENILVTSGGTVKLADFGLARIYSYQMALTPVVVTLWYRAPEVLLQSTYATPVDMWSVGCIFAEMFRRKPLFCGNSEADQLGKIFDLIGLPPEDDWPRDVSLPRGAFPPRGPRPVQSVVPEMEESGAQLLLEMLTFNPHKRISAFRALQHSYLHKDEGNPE
Sequence (P24385 whole entry partner): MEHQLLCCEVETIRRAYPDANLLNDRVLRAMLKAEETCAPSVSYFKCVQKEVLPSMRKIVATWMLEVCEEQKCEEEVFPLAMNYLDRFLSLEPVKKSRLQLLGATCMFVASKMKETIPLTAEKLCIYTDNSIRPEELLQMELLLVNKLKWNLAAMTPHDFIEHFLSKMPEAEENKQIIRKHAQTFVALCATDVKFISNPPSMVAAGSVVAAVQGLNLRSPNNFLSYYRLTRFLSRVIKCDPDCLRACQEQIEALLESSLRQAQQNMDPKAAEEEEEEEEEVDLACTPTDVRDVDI
Heads up, the class ranges for inhibition at 10 µM are category 1 = under 40%, category 2 = from 40% up to 90%, category 3 = 90% and over

Molecule | Cat
COc1ccccc1-c1cc(Nc2cccc(CS(N)(=O)=O)c2)ncn1 | category 2
CC(C)(C)c1nc(-c2cccc(NS(=O)(=O)c3c(F)cccc3F)c2F)c(-c2ccnc(N)n2)s1 | category 1
N#CCNC(=O)c1ccc(-c2ccnc(Nc3ccc(N4CCOCC4)cc3)n2)cc1 | category 1
CN1CC[C@H](c2c(O)cc(O)c3c(=O)cc(-c4ccccc4Cl)oc23)[C@H](O)C1 | category 3
Cn1cc(-c2ccc(-c3cncc(Cl)c3N3CCC4(CCNC4=O)CC3)cc2)cn1 | category 1

Q: Which class is correct for the following molecule? COc1ccc(F)cc1-c1cc(NC(=O)C2CCCNC2)ncc1Cl (stereo not drawn)
Ans: category 2

Q: Try this molecule too: "CNC(=O)c1nn(C)c2c1C(C)(C)Cc1cnc(Nc3ccc(N4CCN(C)CC4)cc3)nc1-2"
Ans: category 3

Q: Try this molecule too: "CN1CCN(c2ccc(Nc3ncc4cc(C#N)c(=O)n(C5CCCC5)c4n3)cc2)CC1"
Ans: category 3

Q: Try this molecule too: "CN1CCN(Cc2ccc(NC(=O)Nc3ccc(Oc4ccnc(N)n4)cc3)cc2C(F)(F)F)CC1"
Ans: category 2

Q: Try this molecule too: "CC(C)c1cnn2c(NCc3ccccc3)cc(NC[C@H]3CCNC[C@@H]3O)nc12"
Ans: category 1

Q: Try this molecule too: "COC1CN(C(=O)c2ccc3c(N)ncc(-c4ccc(-c5cnn(C)c5)cc4)c3n2)C1"
Ans: category 1
